Reference source: patent US20260224536A1

# Target Under Test: Kv1.3 potassium channel (Homo sapiens, UniProt P22001)
# Sequence (P22001 whole entry): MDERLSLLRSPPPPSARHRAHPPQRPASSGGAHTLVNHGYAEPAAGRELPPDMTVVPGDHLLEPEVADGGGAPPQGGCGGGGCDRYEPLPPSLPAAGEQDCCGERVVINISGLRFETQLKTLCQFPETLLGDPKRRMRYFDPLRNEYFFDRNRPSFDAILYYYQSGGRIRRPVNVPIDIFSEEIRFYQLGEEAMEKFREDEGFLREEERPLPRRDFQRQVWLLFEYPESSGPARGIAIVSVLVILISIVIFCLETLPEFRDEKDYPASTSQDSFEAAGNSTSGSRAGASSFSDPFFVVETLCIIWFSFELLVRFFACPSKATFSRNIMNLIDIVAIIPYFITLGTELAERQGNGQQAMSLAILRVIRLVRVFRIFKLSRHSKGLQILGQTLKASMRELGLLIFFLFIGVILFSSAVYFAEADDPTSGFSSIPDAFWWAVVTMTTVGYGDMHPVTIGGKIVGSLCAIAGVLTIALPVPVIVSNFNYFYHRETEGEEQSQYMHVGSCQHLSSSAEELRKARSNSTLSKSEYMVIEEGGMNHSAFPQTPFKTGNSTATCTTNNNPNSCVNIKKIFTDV
# Assay Name: Whole-cell patch-clamp assay for inhibitory activity against Kv1.3 (peak current)
# Particulars: HEK293 cells stably expressing Kv1.3, patch-clamp
# IC50 values compiled below
Write the value in nM as a bare number.

Some solved entries appear below for comparison.
In [3]: df
Out[3]:
                                   compound                         target_under_test  experimental_readout  reading
0  CC(C)N1CCC(n2nc3n(c2=O)C[C@@H](c2c(O)ccc(Cl)c2Cl)C3)CC1  Kv1.3 potassium channel (Homo sapiens, UniProt P22001)                  IC50     6.93
1  O=c1n([C@@H]2CCOC2)nc2n1C[C@H](c1c(O)ccc(Cl)c1Cl)C2  Kv1.3 potassium channel (Homo sapiens, UniProt P22001)                  IC50     20.1
2    OCCc1nnc2n1C[C@H](c1c(O)ccc(Cl)c1Cl)C2  Kv1.3 potassium channel (Homo sapiens, UniProt P22001)                  IC50       13
3  CC(C)N1CCC(Cc2nnc3n2CC(c2c(O)ccc(Cl)c2Cl)C3)CC1 (stereo not drawn)  Kv1.3 potassium channel (Homo sapiens, UniProt P22001)                  IC50     5.76
4  Oc1ccc(Cl)c(Cl)c1[C@@H]1Cc2nnc([C@@H]3CCCNC3)n2C1  Kv1.3 potassium channel (Homo sapiens, UniProt P22001)                  IC50     2.56

Prompt: Using the record for CC(C)N1CCC(c2cnc3n2C[C@@H](c2c(O)ccc(Cl)c2Cl)C3)CC1 , report its IC50.
Completion: 6.06

----------
# Target Under Test: UniProtKB P22001
# Assay Name: Whole-cell patch-clamp assay for inhibitory activity against Kv1.3 (peak current)
# Particulars: HEK293 cells stably expressing Kv1.3, patch-clamp
Listing of recorded pIC50 by entry.
pIC50 is a log-scale quantity: -log10 of the concentration expressed in molar.

In [3]: df
Out[3]:
                                   molecule  reading
0  OCCn1cc(-c2nnc3n2C[C@H](c2c(O)ccc(Cl)c2Cl)C3)cn1     8.09
1  CC(C)N1CCC(c2nnc3n2C[C@H](c2c(O)ccc(Cl)c2Cl)C3)CC1     8.17
2     OCc1nnc2n1C[C@H](c1c(O)ccc(Cl)c1Cl)C2     7.55
3  Oc1ccc(Cl)c(Cl)c1[C@@H]1Cc2nnc([C@@H]3CCNC3)n2C1     8.07
4  COC(=O)N1CCC(c2nnc3n2C[C@H](c2c(O)ccc(Cl)c2Cl)C3)C1 (single isomer, unassigned)     7.96

Prompt: # get_value(readout='pIC50', item= COc1cccc(-c2nnc3n2C[C@@H](c2c(O)ccc(Cl)c2Cl)C3)c1 )
Completion: 7.34

Prompt: # get_value(readout='pIC50', item= CC(F)(F)c1nnc2n1C[C@H](c1c(O)ccc(Cl)c1Cl)C2 )
Completion: 7.61

Prompt: Recorded pIC50 of Oc1ccc(Cl)c(Cl)c1C1Cc2nnc(N3CCOCC3)n2C1 (stereo not drawn) , please.
Completion: 8.01

Prompt: Value lookup for pIC50; key = CC(C)(C)c1nnc2n1CC(c1c(O)ccc(Cl)c1Cl)C2 (stereo not drawn)
Completion: 7.13

----------
# Target Under Test: Kv1.3 potassium channel (Homo sapiens)
# Assay Name: Whole-cell patch-clamp assay for inhibitory activity against Kv1.3 (peak current)
# Format: cell-based
# Particulars: HEK293 cells stably expressing Kv1.3, patch-clamp
Experimental Readout: log10(IC50) (log10 of the value in nM)
Please be aware that the numbers have been log10-transformed from IC50 in nM.

Use these answered entries as a reference point.
>>> print(df.to_string())
                                   compound                       target_under_test  reading
0  Cc1cc(-c2nnc3n2C[C@H](c2c(O)ccc(Cl)c2Cl)C3)ccn1  Kv1.3 potassium channel (Homo sapiens)     0.91
1     CCc1cnc2n1C[C@H](c1c(O)ccc(Cl)c1Cl)C2  Kv1.3 potassium channel (Homo sapiens)     0.74
2  CCc1c2c(nn1C)CC(c1c(O)ccc(Cl)c1Cl)C2 (stereo not drawn)  Kv1.3 potassium channel (Homo sapiens)     1.76
3  Oc1ccc(Cl)c(Cl)c1[C@@H]1Cc2nnc([C@H]3CCOC3)n2C1  Kv1.3 potassium channel (Homo sapiens)     1.08
4  Oc1ccc(Cl)c(Cl)c1[C@H]1Cc2ncc(C3CCCC3)n2C1  Kv1.3 potassium channel (Homo sapiens)     0.69
5  Oc1ccc(Cl)c(Cl)c1[C@@H]1Cc2nnc(-c3ccnc(C(F)(F)F)c3)n2C1  Kv1.3 potassium channel (Homo sapiens)     1.16
6  Cn1cc(-c2cnc3n2CC(c2c(O)ccc(Cl)c2Cl)C3)cn1 (stereo not drawn)  Kv1.3 potassium channel (Homo sapiens)     1.07
7  Oc1ccc(Cl)c(Cl)c1[C@@H]1Cc2nnc([C@@H]3CCCOC3)n2C1  Kv1.3 potassium channel (Homo sapiens)     1.20

Note: attention shifts to another entry.
Prompt: Can you share its log10(IC50)? I mean this compound: Oc1ccc(Cl)c(Cl)c1[C@@H]1Cc2nnc(CC(F)(F)F)n2C1
Completion: 1.32

----------
IC50 reference
# Target Under Test: Kv1.4 potassium channel (Homo sapiens)
# Sequence (P22459 whole entry): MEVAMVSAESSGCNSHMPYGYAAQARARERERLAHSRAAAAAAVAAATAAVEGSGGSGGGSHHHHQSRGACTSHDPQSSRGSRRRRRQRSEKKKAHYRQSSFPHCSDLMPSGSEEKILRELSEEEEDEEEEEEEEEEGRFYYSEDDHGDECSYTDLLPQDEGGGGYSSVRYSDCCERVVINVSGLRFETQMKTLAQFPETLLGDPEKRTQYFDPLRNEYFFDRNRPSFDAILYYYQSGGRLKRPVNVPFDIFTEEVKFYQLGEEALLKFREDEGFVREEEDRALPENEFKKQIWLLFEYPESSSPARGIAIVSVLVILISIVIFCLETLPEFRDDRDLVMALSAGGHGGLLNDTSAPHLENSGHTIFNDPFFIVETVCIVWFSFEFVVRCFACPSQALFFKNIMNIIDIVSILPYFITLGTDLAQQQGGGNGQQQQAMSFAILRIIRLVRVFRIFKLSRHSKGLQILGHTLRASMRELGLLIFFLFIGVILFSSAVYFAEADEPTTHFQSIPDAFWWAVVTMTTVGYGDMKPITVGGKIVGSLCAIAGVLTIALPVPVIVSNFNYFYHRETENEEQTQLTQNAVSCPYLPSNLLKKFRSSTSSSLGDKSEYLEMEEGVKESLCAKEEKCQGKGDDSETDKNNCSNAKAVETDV
# Assay Name: Whole-cell patch-clamp assay for inhibitory activity against Kv1.4 (peak current)
# Particulars: HEK293 cells stably expressing Kv1.4, patch-clamp, read-out: IC50 for inhibition of Kv1.4

>>> print(df.to_string())
                                   compound                       target_under_test  reading
0  Oc1ccc(Cl)c(Cl)c1[C@@H]1Cc2nnc([C@@H]3CCOC3)n2C1 [Example 54]  Kv1.4 potassium channel (Homo sapiens)  > 30 µM

Now look at this entry.
Prompt: Param readout= IC50; system= Kv1.4 potassium channel (Homo sapiens); entry= OCc1nnc2n1C[C@H](c1c(O)ccc(Cl)c1Cl)C2 [Example 2] ; returns value.
Completion: > 30 µM

----------
# key: entry, value: IC50
# Target Under Test: Kv1.3 potassium channel (Homo sapiens, UniProt P22001)
# Assay Name: Whole-cell patch-clamp assay for inhibitory activity against Kv1.3 (peak current)
# Particulars: HEK293 cells stably expressing Kv1.3, patch-clamp
// unit must come after the numeric part

>>> df
                                   compound  experimental_readout  reading
0  CC(C)N1CCC(c2cnc3n2CC(c2c(O)ccc(Cl)c2Cl)C3)CC1 (single isomer, unassigned)                  IC50  6.09 nM
1  Oc1ccc(Cl)c(Cl)c1C1Cc2nnc(CN3CCOCC3)n2C1 (stereo not shown)                  IC50  35.3 nM
2  Oc1ccc(Cl)c(Cl)c1[C@@H]1Cc2nnc(-c3cn[nH]c3)n2C1                  IC50  5.12 nM
3  O=C1CC(c2nnc3n2C[C@H](c2c(O)ccc(Cl)c2Cl)C3)CCN1 (single isomer, unassigned) [Example 56]                  IC50  20.6 nM
4  O=C1CC(c2nnc3n2C[C@H](c2c(O)ccc(Cl)c2Cl)C3)CN1 (single isomer, unassigned)                  IC50    15 nM
5  Oc1ccc(Cl)c(Cl)c1[C@@H]1Cc2nnc(C3CCCNC3)n2C1 (single isomer, unassigned)                  IC50    12 nM

Let us examine a further case.
Prompt: Fill in: IC50 of CC(=O)N1CC[C@@H](c2nnc3n2C[C@H](c2c(O)ccc(Cl)c2Cl)C3)C1 is ___
Completion: 11.3 nM

----------
Measured pIC50 values are reported for all entries that follow.
# Target Under Test: hERG potassium channel (Homo sapiens, UniProt Q12809)
# Sequence (Q12809 whole entry): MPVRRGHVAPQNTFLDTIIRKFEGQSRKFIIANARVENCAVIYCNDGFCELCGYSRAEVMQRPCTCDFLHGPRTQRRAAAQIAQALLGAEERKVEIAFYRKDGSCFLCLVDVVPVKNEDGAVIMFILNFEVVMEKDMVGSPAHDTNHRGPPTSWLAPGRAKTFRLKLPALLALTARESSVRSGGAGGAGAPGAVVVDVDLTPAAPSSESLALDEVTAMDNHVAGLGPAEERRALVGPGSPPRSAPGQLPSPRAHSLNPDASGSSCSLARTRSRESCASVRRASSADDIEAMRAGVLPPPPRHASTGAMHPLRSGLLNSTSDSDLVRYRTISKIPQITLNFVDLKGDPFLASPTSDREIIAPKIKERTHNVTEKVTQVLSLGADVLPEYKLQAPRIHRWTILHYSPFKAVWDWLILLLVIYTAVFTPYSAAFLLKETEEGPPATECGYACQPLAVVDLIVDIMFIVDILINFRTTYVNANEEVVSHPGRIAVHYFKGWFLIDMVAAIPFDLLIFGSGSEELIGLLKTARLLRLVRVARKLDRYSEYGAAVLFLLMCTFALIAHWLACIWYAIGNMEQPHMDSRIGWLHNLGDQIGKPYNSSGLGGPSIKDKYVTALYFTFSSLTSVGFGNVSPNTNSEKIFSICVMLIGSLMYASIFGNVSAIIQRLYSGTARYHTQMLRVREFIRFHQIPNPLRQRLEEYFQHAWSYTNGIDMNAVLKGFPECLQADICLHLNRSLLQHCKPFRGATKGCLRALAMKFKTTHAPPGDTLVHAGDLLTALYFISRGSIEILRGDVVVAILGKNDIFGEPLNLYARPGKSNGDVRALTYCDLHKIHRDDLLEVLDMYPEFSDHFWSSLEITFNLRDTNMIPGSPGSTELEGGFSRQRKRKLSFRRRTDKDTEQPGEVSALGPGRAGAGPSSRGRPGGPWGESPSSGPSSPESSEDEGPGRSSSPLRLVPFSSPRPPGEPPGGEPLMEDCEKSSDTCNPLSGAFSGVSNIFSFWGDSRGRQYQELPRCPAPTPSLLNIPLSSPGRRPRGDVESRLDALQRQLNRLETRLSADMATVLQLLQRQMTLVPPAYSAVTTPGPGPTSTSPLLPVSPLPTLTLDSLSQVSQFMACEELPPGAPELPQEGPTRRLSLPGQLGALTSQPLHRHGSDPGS
# Assay Name: Whole-cell voltage clamp assay for inhibitory activity against hERG
# Particulars: CHO cells stably expressing hERG, peak tail current at -50 mV, read-out: IC50 for inhibition of hERG
pIC50: −log10 of the molar value.

>>> print(df.to_string())
                         chemical_string  experimental_readout  reading
0  OCc1nnc2n1C[C@H](c1c(O)ccc(Cl)c1Cl)C2                 pIC50   < 4.52

Next up:
Prompt: Could you tell me which pIC50 is on file for Oc1ccc(Cl)c(Cl)c1[C@@H]1Cc2nnc([C@@H]3CCOC3)n2C1 ?
Completion: < 4.52

----------
# Target Under Test: UniProt Q09470
# Sequence (Q09470 whole entry): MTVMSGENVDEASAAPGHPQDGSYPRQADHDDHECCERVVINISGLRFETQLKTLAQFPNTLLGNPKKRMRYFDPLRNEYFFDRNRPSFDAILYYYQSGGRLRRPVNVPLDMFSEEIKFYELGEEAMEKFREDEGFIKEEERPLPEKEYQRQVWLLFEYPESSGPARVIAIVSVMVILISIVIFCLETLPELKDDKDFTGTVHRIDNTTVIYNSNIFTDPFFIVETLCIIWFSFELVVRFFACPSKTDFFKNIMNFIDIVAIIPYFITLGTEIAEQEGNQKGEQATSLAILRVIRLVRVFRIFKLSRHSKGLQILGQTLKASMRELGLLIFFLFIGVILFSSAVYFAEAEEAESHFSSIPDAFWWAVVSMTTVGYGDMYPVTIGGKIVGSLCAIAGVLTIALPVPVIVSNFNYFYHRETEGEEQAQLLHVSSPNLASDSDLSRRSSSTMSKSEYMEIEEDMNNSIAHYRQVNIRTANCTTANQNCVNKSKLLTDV
# Assay Name: Whole-cell patch-clamp assay for inhibitory activity against Kv1.1 (steady state current)
# Particulars: HEK293 cells stably expressing Kv1.1, patch-clamp, read-out: IC50 for inhibition of Kv1.1
pIC50: −log10 of the molar value.
Experimental Readout: pIC50

In [3]: df
Out[3]:
                         chemical_string  reading
0  OCc1nnc2n1C[C@H](c1c(O)ccc(Cl)c1Cl)C2   < 4.00

Proceed to the following item.
Prompt: What value of pIC50 has been reported for the following molecule? Oc1ccc(Cl)c(Cl)c1[C@@H]1Cc2nnc([C@@H]3CCOC3)n2C1
Completion: < 4.00
